- Target or test system: Porcine ventricle myofibrils (ventricular myosin ATPase) (Sus scrofa, UniProt P79293)
- Construct: Myofibrils from porcine cardiac muscle was isolated from the left ventricle of Yucatan minipigs; tissue Exemplar Genetics; host or cells: left ventricle of Yucatan minipigs, myofibrils prepared in house
- Sequence (P79293 whole entry): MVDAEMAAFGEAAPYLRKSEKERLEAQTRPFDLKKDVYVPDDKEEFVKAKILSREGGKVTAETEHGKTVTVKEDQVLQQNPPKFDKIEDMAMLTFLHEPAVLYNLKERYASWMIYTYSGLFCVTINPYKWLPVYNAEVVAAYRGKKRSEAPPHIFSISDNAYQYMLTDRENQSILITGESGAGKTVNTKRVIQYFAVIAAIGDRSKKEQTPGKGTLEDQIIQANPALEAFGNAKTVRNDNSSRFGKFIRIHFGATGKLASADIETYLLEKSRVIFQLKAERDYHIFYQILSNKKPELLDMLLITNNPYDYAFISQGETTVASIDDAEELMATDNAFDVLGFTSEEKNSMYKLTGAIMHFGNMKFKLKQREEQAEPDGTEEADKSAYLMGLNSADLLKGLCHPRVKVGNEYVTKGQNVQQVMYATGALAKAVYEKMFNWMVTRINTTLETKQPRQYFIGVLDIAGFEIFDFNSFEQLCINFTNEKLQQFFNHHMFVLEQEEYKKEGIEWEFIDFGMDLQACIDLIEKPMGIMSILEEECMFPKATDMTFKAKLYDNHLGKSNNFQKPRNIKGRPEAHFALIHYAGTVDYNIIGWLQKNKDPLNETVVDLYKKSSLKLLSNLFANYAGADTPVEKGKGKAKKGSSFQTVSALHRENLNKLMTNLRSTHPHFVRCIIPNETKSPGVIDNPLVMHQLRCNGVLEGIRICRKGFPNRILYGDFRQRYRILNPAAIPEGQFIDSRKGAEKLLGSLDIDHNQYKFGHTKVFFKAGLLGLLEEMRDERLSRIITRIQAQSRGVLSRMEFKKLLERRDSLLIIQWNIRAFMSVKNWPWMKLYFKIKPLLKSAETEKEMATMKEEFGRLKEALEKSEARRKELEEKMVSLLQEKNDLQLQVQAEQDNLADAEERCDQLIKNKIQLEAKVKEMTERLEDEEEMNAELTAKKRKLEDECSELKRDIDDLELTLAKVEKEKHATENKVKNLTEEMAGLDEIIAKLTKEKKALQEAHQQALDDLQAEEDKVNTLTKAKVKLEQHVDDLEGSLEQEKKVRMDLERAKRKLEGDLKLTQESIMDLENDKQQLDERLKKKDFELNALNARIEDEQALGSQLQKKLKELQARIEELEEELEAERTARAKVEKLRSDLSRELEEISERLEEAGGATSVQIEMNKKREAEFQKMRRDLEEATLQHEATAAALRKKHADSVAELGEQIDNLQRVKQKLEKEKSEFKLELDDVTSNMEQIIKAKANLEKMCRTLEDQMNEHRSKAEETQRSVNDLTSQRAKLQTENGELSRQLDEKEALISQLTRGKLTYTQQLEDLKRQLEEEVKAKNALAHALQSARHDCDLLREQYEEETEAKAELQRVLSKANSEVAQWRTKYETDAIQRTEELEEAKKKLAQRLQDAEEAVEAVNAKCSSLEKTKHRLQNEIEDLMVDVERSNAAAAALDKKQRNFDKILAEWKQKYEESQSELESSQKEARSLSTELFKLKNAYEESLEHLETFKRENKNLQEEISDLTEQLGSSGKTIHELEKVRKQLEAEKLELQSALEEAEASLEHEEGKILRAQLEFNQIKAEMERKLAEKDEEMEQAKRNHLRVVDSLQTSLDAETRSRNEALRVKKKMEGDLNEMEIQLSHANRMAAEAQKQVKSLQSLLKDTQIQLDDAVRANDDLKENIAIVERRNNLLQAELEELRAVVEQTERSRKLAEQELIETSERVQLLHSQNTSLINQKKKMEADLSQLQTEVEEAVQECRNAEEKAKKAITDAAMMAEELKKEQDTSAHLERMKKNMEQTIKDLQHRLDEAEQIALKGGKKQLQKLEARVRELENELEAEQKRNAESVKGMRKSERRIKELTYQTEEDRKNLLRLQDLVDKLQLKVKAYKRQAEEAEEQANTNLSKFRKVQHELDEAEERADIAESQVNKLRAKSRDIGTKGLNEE
- Method summary: Myofibril ATPase assay, porcine ventricle myofibrils
- Assay type: biochemical, porcine (Yucatan minipigs)
- Condition summary: porcine ventricle myofibrils; Y75 value
Measure: Ventricular EC25 (µM)

Cc1c(CC(=O)N[C@@H](C)c2ccc(F)cc2F)c(=O)[nH]c2ccnc(I)c12	0.31
Cc1c(C(F)(F)C(=O)N[C@H](CO)c2ncc(C#N)cc2F)c(=O)[nH]c2ccnc(C#N)c12 (single isomer, unassigned)	0.31
Cc1nccc2[nH]c(=O)c(CC(=O)N[C@H]3COc4cc(F)cc(F)c43)c(C)c12 (single isomer, unassigned)	100.00
C[C@H](NC(=O)Cc1c(C(F)F)c2cnccc2[nH]c1=O)c1ccc(F)cc1F	7.68
Cc1c(CC(=O)N[C@@H](CO)c2ncc(F)cc2F)c(=O)[nH]c2ccnc(C(F)(F)F)c12	2.73

[1] C#Cc1nccc2[nH]c(=O)c(CC(=O)N[C@@H](C)c3ccc(F)cc3F)cc12
[2] Cc1nc([C@@H](C)NC(=O)Cc2c(C)c3c(C)nccc3[nH]c2=O)ncc1C#N
Asked: For the pair 1 and 2 , which member has the lower Ventricular EC25 number? Identify your pick by its label.
Given back: 2

###

- Test system: Rabbit Psoas myofibrils (skeletal myosin ATPase)
- Method summary: Myofibril ATPase assay, rabbit psoas (skeletal) myofibrils
- Type: biochemical
- Condition summary: rabbit psoas myofibrils; Y75 value
Measure: Skeletal EC25 (nM)

[P] Cc1nccc2[nH]c(=O)c(CC(=O)N[C@@H]3COc4cc(C#N)cc(F)c43)c(C)c12 (single isomer, unassigned) [compound 177]
[Q] Cc1nccc2[nH]c(=O)c([C@@H](C)C(=O)N[C@@H](C)c3ccc(C#N)cc3F)c(C)c12 (single isomer, unassigned) [compound 195]
[R] Cc1nccc2[nH]c(=O)c(CC(=O)N[C@@H](C)c3cccc(O)n3)c(C)c12 (single isomer, unassigned) [compound 298]
[S] Cc1c(CC(=O)N[C@H](C)c2ccc(C#N)cc2F)c(=O)[nH]c2ccnc(C#N)c12 (single isomer, unassigned) [compound 282]
[T] Cc1c(CC(=O)N[C@@H](C)c2ccc(F)cc2F)c(=O)[nH]c2ccnc(N3CCOCC3)c12 [compound 345]
Asked: // ascending sort on recorded Skeletal EC25 # answer = labels listed in requested order
Given back: P, Q, S, T, R

###

- Tested on: Rabbit Psoas myofibrils (skeletal myosin ATPase)
- Method summary: Myofibril ATPase assay, rabbit psoas (skeletal) myofibrils
- Assay type: biochemical
- Condition summary: rabbit psoas myofibrils; Y75 value
Measure: Skeletal EC25 (nM)

Previously resolved entries follow.
C[C@H](NC(=O)Cc1c(C(F)(F)F)c2c(C3CC3)nccc2[nH]c1=O)c1ncc(C#N)cn1 (single isomer, unassigned)	100000
Cc1nccc2[nH]c(=O)c(CC(=O)NC[C@H](CO)c3ccccc3)c(C)c12	100000
Cc1nccc2[nH]c(=O)c(C3(C(=O)N[C@H](C)c4ccc(C#N)cc4F)CC3)c(C)c12 (single isomer, unassigned)	240
CC#Cc1nccc2[nH]c(=O)c(CC(=O)N[C@@H](C)c3ccc(F)cc3F)c(C)c12	60
Cc1nccc2[nH]c(=O)c(CC(=O)N[C@@H](C)c3cccnc3)c(C)c12 (single isomer, unassigned)	100000
Cc1nccc2[nH]c(=O)c([C@@H](C)C(=O)N[C@@H](C)c3ccc(F)cc3F)c(C)c12 (single isomer, unassigned)	300
COc1ccc([C@H](C)NC(=O)Cc2c(C)c3c(C)nccc3[nH]c2=O)cc1 (single isomer, unassigned)	100000
Cc1c(CC(=O)N[C@H](C)c2ccc(C#N)cc2F)c(=O)[nH]c2ccc(C(F)(F)F)nc12 (single isomer, unassigned)	150

[P] Cc1nccc2[nH]c(=O)c(CC(=O)N[C@H](CO)c3cccnc3)c(C)c12 (single isomer, unassigned)
[Q] Cc1c(CC(=O)N[C@H](CO)c2ccc(C#N)cc2F)c(=O)[nH]c2ccc(C(F)(F)F)nc12
[R] Cc1nccc2[nH]c(=O)c(CC(=O)N[C@H](CO)c3ncc(C#N)cc3F)c(C)c12 (single isomer, unassigned)
[S] Cc1nccc2[nH]c(=O)c(CC(=O)N[C@@H](C)c3ccc(S(C)(=O)=O)cc3F)c(C)c12 (single isomer, unassigned)
[T] C[C@H](NC(=O)Cc1c(C(F)(F)F)c2c(Cl)nccc2[nH]c1=O)c1ccc(F)cc1F
Asked: Sort entries by Skeletal EC25 from minimum to maximum value. Answer by naming the labels in the order asked.
Given back: T, S, R, Q, P

[A] Cc1nccc2[nH]c(=O)c(C(F)(F)C(=O)N[C@H](C)c3ncc(C#N)cc3F)c(C)c12 (single isomer, unassigned)
[B] Cc1nccc2[nH]c(=O)c(C(F)(F)C(=O)N[C@H](C)c3cnc(C#N)cn3)c(C)c12 (single isomer, unassigned)
[C] Cc1nccc2[nH]c(=O)c(CC(=O)N[C@H](C)c3ccccc3O)c(C)c12 (single isomer, unassigned)
[D] Cc1nccc2[nH]c(=O)c(CC(=O)N[C@H]3COc4cc(F)cc(F)c43)c(C)c12 (single isomer, unassigned)
Asked: Arrange these compounds by their Skeletal EC25, starting with the largest number. Form field (ranking): labels in requested order.
Given back: C, A, D, B
(C: 34090 nM, A: 5800 nM, D: 2540 nM, B: 250 nM)

[P] Cc1nccc2[nH]c(=O)c(CC(=O)N[C@@H](C)c3ccc(F)cc3F)cc12
[Q] Cc1c(CC(=O)N[C@H](C)c2ccc(C#N)cn2)c(=O)[nH]c2ccncc12
[R] Cc1nccc2[nH]c(=O)c(CC(=O)N[C@H](C)c3ccc(C#N)cc3F)c(C)c12 (single isomer, unassigned)
Asked: Sort entries by Skeletal EC25 from minimum to maximum value. Submit the labels in the order that the ranking request calls for.
Given back: P, R, Q
(P: 430 nM, R: 710 nM, Q: 100000 nM)

[P] Cc1c(CC(=O)N[C@@H](C)c2ccc(C#N)cc2F)c(=O)[nH]c2ccnc(C#N)c12 (single isomer, unassigned)
[Q] Cc1c(CC(=O)N[C@@H](C)c2ncc(C#N)cc2F)c(=O)[nH]c2ccnc(C(F)(F)F)c12 (single isomer, unassigned)
Asked: Form: Entry with minimum Skeletal EC25 (choose one): P / Q Reply with the label of the item you choose.
Given back: P
